// data source = paper PMC4013293

MEASURED_ON: ERβ (Homo sapiens)
Sequence (Q92731 whole entry): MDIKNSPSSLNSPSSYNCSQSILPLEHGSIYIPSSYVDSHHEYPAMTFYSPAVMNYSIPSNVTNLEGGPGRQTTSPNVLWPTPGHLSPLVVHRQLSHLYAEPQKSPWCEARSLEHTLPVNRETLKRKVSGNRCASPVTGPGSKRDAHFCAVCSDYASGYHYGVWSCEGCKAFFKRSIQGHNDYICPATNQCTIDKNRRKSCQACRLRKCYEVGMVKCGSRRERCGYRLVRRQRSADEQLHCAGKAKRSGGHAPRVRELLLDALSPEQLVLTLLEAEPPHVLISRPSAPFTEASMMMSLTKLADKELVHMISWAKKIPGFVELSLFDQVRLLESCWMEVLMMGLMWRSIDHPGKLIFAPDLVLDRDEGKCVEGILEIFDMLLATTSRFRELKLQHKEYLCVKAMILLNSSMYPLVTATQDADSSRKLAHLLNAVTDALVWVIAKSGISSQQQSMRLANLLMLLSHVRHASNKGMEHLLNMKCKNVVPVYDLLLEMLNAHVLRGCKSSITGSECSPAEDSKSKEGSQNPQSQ
ASSAY_SUMMARY: Cell-based ERβ luciferase reporter luminescence assay, agonist mode
CONDITION_NOTES: read-out: ERβ agonist IC50; luciferase reporter cells, 22 h, duplicate
METRIC_NAME: IC50 (nM)
Answer with a number only, understood to be in nM.

Consider the compound OC[C@H]1CCC[C@@H](c2ccc(O)cc2)CC1 (relative stereo) [Compound 18] and give its measured IC50.
5.4
